experiment: Toxicity against Artemia salina (brine shrimp) assessed as mortality after 24 hr; assay type: organism-based; conditions: in vivo, read-out: LD50
measured attribute: LC50 at 24 h

Some compounds with known LC50 at 24 h results, for comparison:
O=C1Nc2ccc(F)cc2/C1=N/NC(=S)Nc1ccccc1
68.9 µM
O=C1Nc2ccc(F)cc2/C1=N/NC(=S)Nc1ccc(Br)cc1F
> 49.1 µM
O=C1Nc2ccc(F)cc2/C1=N/NC(=S)Nc1cccc(F)c1
121 µM
O=C1Nc2ccc(F)cc2/C1=N/NC(=S)Nc1ccc(OC(F)(F)F)cc1
> 50.3 µM
O=C1Nc2ccccc2/C1=N/NC(=S)Nc1ccccc1
> 338 µM
O=C1Nc2ccc(F)cc2/C1=N/NC(=S)Nc1ccc(F)cc1
97.9 µM

// below: LC50 at 24 h requested for another compound
Recorded LC50 at 24 h (compound `O=C1Nc2ccc(F)cc2/C1=N/NC(=S)Nc1ccccc1C(F)(F)F` ): > 52.4 µM

---

target: Urease (Canavalia ensiformis) (UniProt P07374); assay: Inhibition of Canavalia ensiformis (jack bean) urease assessed as inhibition of ammonia production at 200 uM after 15 min by indophenol method
Sequence (P07374 whole entry, looked up): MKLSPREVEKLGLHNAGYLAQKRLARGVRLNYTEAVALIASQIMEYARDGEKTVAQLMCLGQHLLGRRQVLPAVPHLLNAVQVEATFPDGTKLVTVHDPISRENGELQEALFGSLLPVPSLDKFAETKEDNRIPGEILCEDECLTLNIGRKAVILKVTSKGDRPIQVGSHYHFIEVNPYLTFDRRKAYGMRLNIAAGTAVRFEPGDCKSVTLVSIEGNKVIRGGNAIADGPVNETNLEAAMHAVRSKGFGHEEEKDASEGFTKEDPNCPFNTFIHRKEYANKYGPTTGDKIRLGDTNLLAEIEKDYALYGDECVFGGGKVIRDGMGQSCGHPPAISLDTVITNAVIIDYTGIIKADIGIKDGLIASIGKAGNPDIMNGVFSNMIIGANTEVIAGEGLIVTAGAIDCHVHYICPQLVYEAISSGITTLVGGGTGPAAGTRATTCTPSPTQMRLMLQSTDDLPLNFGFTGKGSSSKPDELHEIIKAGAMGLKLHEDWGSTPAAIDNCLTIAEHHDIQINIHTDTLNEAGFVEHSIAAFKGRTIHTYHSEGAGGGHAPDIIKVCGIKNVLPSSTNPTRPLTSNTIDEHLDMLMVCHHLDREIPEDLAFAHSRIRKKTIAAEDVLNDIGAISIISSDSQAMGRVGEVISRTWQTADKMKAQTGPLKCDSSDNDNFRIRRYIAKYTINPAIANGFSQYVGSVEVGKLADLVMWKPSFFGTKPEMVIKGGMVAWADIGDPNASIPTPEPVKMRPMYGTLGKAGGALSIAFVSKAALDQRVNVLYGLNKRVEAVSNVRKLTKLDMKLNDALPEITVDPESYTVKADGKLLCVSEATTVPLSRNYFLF
Each entry below carries its reported inhibition.
Numeric only. Scale: %

Measured inhibition for this entry `O=C1Nc2ccc(F)cc2/C1=N/NC(=S)Nc1ccccc1C(F)(F)F` on Urease (Canavalia ensiformis) (UniProt P07374): 77.3

Measured inhibition for this entry `O=C1Nc2ccc(F)cc2/C1=N/NC(=S)Nc1ccc(Br)cc1F` on Urease (Canavalia ensiformis) (UniProt P07374): 21.9

Measured inhibition for this entry `O=C1Nc2ccc(F)cc2/C1=N/NC(=S)Nc1cccc(F)c1` on Urease (Canavalia ensiformis) (UniProt P07374): 79.8

Measured inhibition for this entry `O=C1Nc2ccc(F)cc2/C1=N/NC(=S)Nc1ccc(C(F)(F)F)cc1` on Urease (Canavalia ensiformis) (UniProt P07374): 53.4

---

tested on: Aspergillus flavus; assay: Growth inhibition of Aspergillus flavus at 200 ug/ml after 7 days; type: functional; conditions: 168 h
measured attribute: inhibition at 200 µg/mL (%)
Numeric only. Scale: %

Recorded inhibition at 200 µg/mL (compound `O=C1Nc2ccc(F)cc2/C1=N/NC(=S)Nc1ccc(Br)cc1F` ): 0

Recorded inhibition at 200 µg/mL (compound `O=C1Nc2ccc(F)cc2/C1=N/NC(=S)Nc1c(F)cccc1F` ): 40

---

tested on: Lemna aequinoctialis; test: Phytotoxicity against Lemna aequinoctialis assessed as growth inhibition at 500 ug/ml after 7 days relative to control; format: functional; conditions: 168 h, read-out: GI
Decision: inhibition of growth at 500 µg/mL >= 30% yields rule met, all other cases yield rule not met.

Exercise: Given the entry `O=C1Nc2ccc(F)cc2/C1=N/NC(=S)Nc1ccccc1F` , answer whether its inhibition of growth at 500 µg/mL meets or surpasses 30%.
Key: rule met

---

biological target: Urease (Canavalia ensiformis); experiment: Inhibition of Canavalia ensiformis (jack bean) urease assessed as inhibition of ammonia production after 15 min by indophenol method; details: read-out: IC50
measured attribute: IC50 (µM)
Numeric only. Scale: µM

Some compounds with known IC50 results, for comparison:
O=C1Nc2ccc(F)cc2/C1=N/NC(=S)Nc1cccc(F)c1
45.3
O=C1Nc2ccc(F)cc2/C1=N/NC(=S)Nc1ccccc1F
37.7
O=C1Nc2ccc(F)cc2/C1=N/NC(=S)Nc1cccc(C(F)(F)F)c1
59.9

Recorded IC50 (compound `O=C1Nc2ccccc2/C1=N/NC(=S)Nc1ccccc1F` ): 20.6

Recorded IC50 (compound `O=C1Nc2ccc(F)cc2/C1=N/NC(=S)Nc1ccccc1` ): 343

Recorded IC50 (compound `O=C1Nc2ccccc2/C1=N/NC(=S)Nc1cccc(C(F)(F)F)c1` ): 20.6

Recorded IC50 (compound `O=C1Nc2ccccc2/C1=N/NC(=S)Nc1ccccc1C(F)(F)F` ): 33.1

Recorded IC50 (compound `O=C1Nc2ccccc2/C1=N/NC(=S)Nc1ccc(F)cc1F` ): 47.6

Source listed as ChEMBL document CHEMBL3044957.
